molecular target: 20Sc (constitutive proteasome; commercially available proteasome) (Homo sapiens, UniProt P28072+P28074+Q99436); assay: SPRI measurement of ability of immobilized potential receptor to bind 20Sc; format: binding, mammalian; settings: receptor at 1, 10, 100 μg mL−1, 20Sc 2.8 μg mL−1, SPRI signal increase of less than 20% = lack of ability to bind
Where a SMILES comes first, the peptide text is derived from it. [ ]: non-standard residue; d: D form. hPhe = N[C@@H](CCc1ccccc1)C(=O)O
MEASUREMENT TYPE: Ability to bind 20Sc

Sample answers from the record:
Enquiry: For the compound shown here, N[C@@H](Cc1ccccc1)C(=O)N[C@@H](Cc1ccccc1)C(=O)O [compound 9, H-Phe-Phe-OH] (H-Phe-Phe-OH) , give the reported Ability to bind 20Sc.
Return: + (+, bound)

Enquiry: For the compound shown here, N[C@@H](Cc1ccccc1)C(=O)N[C@@H](Cc1ccccc1)C(=O)N[C@@H](Cc1ccccc1)C(=O)O [compound 2, H-Phe-Phe–Phe-OH] (H-Phe-Phe-Phe-OH) , give the reported Ability to bind 20Sc.
Return: + (+, bound)

Enquiry: For the compound shown here, N[C@@H](Cc1ccccc1)C(=O)N[C@@H](CCc1ccccc1)C(=O)N[C@@H](Cc1ccccc1)C(=O)O [compound 7, H-Phe-hPhe-Phe-OH] (H-Phe-[hPhe]-Phe-OH) , give the reported Ability to bind 20Sc.
Return: + (+, bound)

Enquiry: For the compound shown here, CC(C)C[C@H](NC(=O)[C@H](CC(C)C)NC(=O)[C@@H](N)Cc1ccccc1)C(=O)O [compound 5, H-Phe-Leu–Leu-OH] (H-Phe-Leu-Leu-OH) , give the reported Ability to bind 20Sc.
Return: – (−, lack of bonding)

Enquiry: For the compound shown here, CC(C)C[C@H](N)C(=O)N[C@@H](Cc1ccccc1)C(=O)N[C@@H](Cc1ccccc1)C(=O)O [compound 4, H-Leu-Phe–Phe-OH] (H-Leu-Phe-Phe-OH) , give the reported Ability to bind 20Sc.
Return: – (−, lack of bonding)

Now examine the next entry.
Enquiry: For the compound shown here, CC(C)C[C@H](NC(=O)[C@@H](N)CC(C)C)C(=O)N[C@@H](Cc1ccccc1)C(=O)O [compound 8, H-Leu-Leu-Phe-OH] (H-Leu-Leu-Phe-OH) , give the reported Ability to bind 20Sc.
Return: – (−, lack of bonding)

---

Where a SMILES comes first, the peptide text is derived from it. [ ]: non-standard residue; d: D form. Nle = CCCC[C@H](N)C(=O)O
Here's what we have: IC50 numbers for UniProt:P00766.
MEASUREMENT TYPE: IC50 (µM)

Sample answers from the record:
Enquiry: For the compound shown here, CCCC[C@H](NC(=O)[C@H](CC(C)C)NC(=O)[C@@H](N)Cc1ccccc1)C(=O)O [compound 11, H-Phe-Leu-nLeu-OH] (H-Phe-Leu-[Nle]-OH) , give the reported IC50.
Return: 1920

Enquiry: For the compound shown here, CC(C)C[C@H](NC(=O)[C@@H](N)CC(C)C)C(=O)N[C@@H](Cc1ccccc1)C(=O)O [compound 8, H-Leu-Leu-Phe-OH] (H-Leu-Leu-Phe-OH) , give the reported IC50.
Return: 152

Enquiry: For the compound shown here, CC(C)C[C@H](N)C(=O)N[C@@H](Cc1ccccc1)C(=O)N[C@@H](Cc1ccccc1)C(=O)O [compound 4, H-Leu-Phe–Phe-OH] (H-Leu-Phe-Phe-OH) , give the reported IC50.
Return: 184

Enquiry: For the compound shown here, CC(C)C[C@H](NC(=O)[C@H](Cc1ccccc1)NC(=O)[C@@H](N)Cc1ccccc1)C(=O)O [compound 6, H-Phe-Phe-Leu-OH] (H-Phe-Phe-Leu-OH) , give the reported IC50.
Return: 174

Enquiry: For the compound shown here, CC(C)C[C@H](NC(=O)[C@@H](N)Cc1ccccc1)C(=O)N[C@@H](Cc1ccccc1)C(=O)O [compound 1, H-Phe-Leu-Phe-OH] (H-Phe-Leu-Phe-OH) , give the reported IC50.
Return: 178

Enquiry: For the compound shown here, N[C@@H](Cc1ccccc1)C(=O)N[C@@H](Cc1ccccc1)C(=O)O [compound 9, H-Phe-Phe-OH] (H-Phe-Phe-OH) , give the reported IC50.
Return: 141

I: C[C@H](NC(=O)[C@@H](N)Cc1ccccc1)C(=O)N[C@@H](Cc1ccccc1)C(=O)O [compound 3, H-Phe-Ala-Phe-OH] (H-Phe-Ala-Phe-OH)
II: CC(C)C[C@H](NC(=O)[C@H](Cc1ccccc1)NC(=O)[C@@H](N)CC(C)C)C(=O)O [compound 10, H-Leu-Phe-Leu-OH] (H-Leu-Phe-Leu-OH)
Enquiry: Short answer wanted: higher IC50, I or II ? Returns: label corresponding to the selected item.
Return: II

---

target: 20Sc (constitutive proteasome; commercially available proteasome) (Homo sapiens, UniProt P28072+P28074+Q99436); assay: SPRI measurement of ability of immobilized potential receptor to bind 20Sc; format: binding, mammalian; details: receptor at 1, 10, 100 μg mL−1, 20Sc 2.8 μg mL−1, SPRI signal increase of less than 20% = lack of ability to bind
Where a SMILES comes first, the peptide text is derived from it. [ ]: non-standard residue; d: D form. Nle = CCCC[C@H](N)C(=O)O
MEASUREMENT TYPE: Ability to bind 20Sc

Sample answers from the record:
Enquiry: For the molecule shown here, CCCC[C@H](NC(=O)[C@H](CC(C)C)NC(=O)[C@@H](N)Cc1ccccc1)C(=O)O [compound 11, H-Phe-Leu-nLeu-OH] (H-Phe-Leu-[Nle]-OH) , give the reported Ability to bind 20Sc.
Return: – (−, lack of bonding)

Enquiry: For the molecule shown here, CC(C)C[C@H](NC(=O)[C@@H](N)Cc1ccccc1)C(=O)N[C@@H](Cc1ccccc1)C(=O)O [compound 1, H-Phe-Leu-Phe-OH] (H-Phe-Leu-Phe-OH) , give the reported Ability to bind 20Sc.
Return: + (+, bound)

Enquiry: For the molecule shown here, CC(C)C[C@H](NC(=O)[C@H](Cc1ccccc1)NC(=O)[C@@H](N)CC(C)C)C(=O)O [compound 10, H-Leu-Phe-Leu-OH] (H-Leu-Phe-Leu-OH) , give the reported Ability to bind 20Sc.
Return: – (−, lack of bonding)

Enquiry: For the molecule shown here, C[C@H](NC(=O)[C@@H](N)Cc1ccccc1)C(=O)N[C@@H](Cc1ccccc1)C(=O)O [compound 3, H-Phe-Ala-Phe-OH] (H-Phe-Ala-Phe-OH) , give the reported Ability to bind 20Sc.
Return: + (+, bound)

Now examine the next entry.
Enquiry: For the molecule shown here, CC(C)C[C@H](NC(=O)[C@H](Cc1ccccc1)NC(=O)[C@@H](N)Cc1ccccc1)C(=O)O [compound 6, H-Phe-Phe-Leu-OH] (H-Phe-Phe-Leu-OH) , give the reported Ability to bind 20Sc.
Return: + (+, bound)

---

biological target: 20Si (Homo sapiens, UniProt P28062+P28065+P40306); construct: purchased www.vivabioscience.com (Basepoint Business Centre, United Kingdom); assay: Specificity of SPRI biosensor: 20Si determination in the presence of an interferent; assay type: binding; conditions: tripeptide as receptor; 20Sc 2.8 μg mL−1, ratio 1:1; added 20Si 2.80 μg mL−1
Where a SMILES comes first, the peptide text is derived from it. [ ]: non-standard residue; d: D form. Nle = CCCC[C@H](N)C(=O)O
MEASUREMENT TYPE: Recovery (%)

Enquiry: For the compound shown here, CC(C)C[C@H](NC(=O)[C@H](Cc1ccccc1)NC(=O)[C@@H](N)CC(C)C)C(=O)O [compound 10, H-Leu-Phe-Leu-OH] (H-Leu-Phe-Leu-OH) , give the reported Recovery.
Return: 103

Enquiry: For the compound shown here, CC(C)C[C@H](NC(=O)[C@@H](N)CC(C)C)C(=O)N[C@@H](Cc1ccccc1)C(=O)O [compound 8, H-Leu-Leu-Phe-OH] (H-Leu-Leu-Phe-OH) , give the reported Recovery.
Return: 103

Enquiry: For the compound shown here, CC(C)C[C@H](NC(=O)[C@H](CC(C)C)NC(=O)[C@@H](N)Cc1ccccc1)C(=O)O [compound 5, H-Phe-Leu–Leu-OH] (H-Phe-Leu-Leu-OH) , give the reported Recovery.
Return: 106

Enquiry: For the compound shown here, CCCC[C@H](NC(=O)[C@H](CC(C)C)NC(=O)[C@@H](N)Cc1ccccc1)C(=O)O [compound 11, H-Phe-Leu-nLeu-OH] (H-Phe-Leu-[Nle]-OH) , give the reported Recovery.
Return: 107
